Biological target: Protein phosphatase methylesterase 1 (Homo sapiens) (UniProt Q9Y570)
Sequence (Q9Y570 whole entry, looked up): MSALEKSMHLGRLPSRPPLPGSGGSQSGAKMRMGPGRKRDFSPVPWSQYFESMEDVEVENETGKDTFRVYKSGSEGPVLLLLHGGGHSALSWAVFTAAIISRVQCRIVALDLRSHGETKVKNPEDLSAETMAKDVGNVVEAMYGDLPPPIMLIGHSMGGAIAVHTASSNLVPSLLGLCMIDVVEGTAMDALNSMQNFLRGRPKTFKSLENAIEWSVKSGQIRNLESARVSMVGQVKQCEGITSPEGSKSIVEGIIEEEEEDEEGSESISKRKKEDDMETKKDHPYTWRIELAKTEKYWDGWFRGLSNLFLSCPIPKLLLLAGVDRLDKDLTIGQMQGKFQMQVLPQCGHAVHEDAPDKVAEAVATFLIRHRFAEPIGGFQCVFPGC
Test: PME-1 inhibitors via competitive probe labeling, primary screen, biochemical, fluorescence polarization, FP-Rh probe, HTS (AID 2130);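 also: competitive labeling of PME-1 active site by serine hydrolase directed probe; 0% = PME-1 with DMSO and 100% = wells lacking PME-1 enzyme; inhibitors block probe labeling so polarization falls and inhibition rises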
Details: recombinant PME-1, FP-Rh probe fluorescence polarization; at 5.9 µM; hits give high values
The campaign covered roughly 320,000 compounds. About 1,700 (0.53%) were called active. For the sample, actives were picked, then their nearest neighbours and some compounds at random.
Listed next: entries and their corresponding inhibition.

compound: CCc1nnc(NC(=O)c2sc3nc(C)cc(COC)c3c2N)s1
unit-string: %
inhibition: -5.69

compound: CN=C1C=C/C(=N/N=c2\ccn(O)cc2C)C=C1C
unit-string: %
inhibition: -11

compound: CCc1ccc2nc3sc(C(=O)Nc4nnc(CC)s4)c(N)c3cc2c1
unit-string: %
inhibition: 65.8

compound: CCC(=O)c1ccc(OCC(=O)Nc2ccc3nc(C)sc3c2)cc1
unit-string: %
inhibition: -15.4

compound: COCCNC(=O)c1ccccc1NS(=O)(=O)c1ccc(C)c([N+](=O)[O-])c1
unit-string: %
inhibition: -1.62

compound: CCOc1ccc2nc(NC(=O)CSc3nc4c(c(=O)n(C)c(=O)n4C)n3CC)sc2c1
unit-string: %
inhibition: 1.27

compound: COc1cc(/C=N/Nc2nc3ccccc3s2)ccc1O
unit-string: %
inhibition: 45.3

compound: COc1cccc(N2C(=O)CC(N3CCc4ccccc4C3)C2=O)c1 (stereo not given)
unit-string: %
inhibition: 1.67

compound: COC(=O)COc1cccc2c(=O)n(CC(=O)NCc3ccccc3)ccc12
unit-string: %
inhibition: -7.45

compound: Cc1ccc(S(=O)(=O)n2cnc3ccccc32)c(C)c1
unit-string: %
inhibition: -0.58

* * *

Some compounds, each annotated with its measured inhibition.
Biological target: Protein phosphatase methylesterase 1 (Homo sapiens)
Assay: PME-1 inhibitors via competitive probe labeling, primary screen, biochemical, fluorescence polarization, FP-Rh probe, HTS (AID 2130);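 also: competitive labeling of PME-1 active site by serine hydrolase directed probe; 0% = PME-1 with DMSO and 100% = wells lacking PME-1 enzyme; inhibitors block probe labeling so polarization falls and inhibition rises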
Conditions: recombinant PME-1, FP-Rh probe fluorescence polarization; at 5.9 µM; hits give high values
Out of some 320,000 compounds screened, about 1,700 (0.53%) were called active. For the sample, actives were picked, then their nearest neighbours and some compounds at random.

compound: CCCCCN(C(=O)CCC(=O)OCCOc1ccc(OC)cc1)c1c(N)n(CCCC)c(=O)[nH]c1=O
inhibition / %: -1.09
--
compound: CCOc1ccc(S(=O)(=O)N(CC(=O)NCC(F)(F)F)Cc2ccco2)cc1
inhibition / %: -1.32
--
compound: O=c1nc(N2CCOCC2)nc2n1CCO2
inhibition / %: 0.45
--
compound: Cc1cccc(Nc2nc(-c3ccccc3)cs2)n1
inhibition / %: 9.05
--
compound: Cc1ccc(Nc2nc(-c3ccc(O)cc3O)cs2)nc1
inhibition / %: 29
--
compound: Cc1ccc(C2Nc3cccc4cccc(c34)N2)cc1
inhibition / %: 1.72
--
compound: COc1ccccc1C1C(C(N)=O)=C(C)Nc2nc(CCCO)nn21 (configuration not stated)
inhibition / %: -0.55

* * *

Target: Protein phosphatase methylesterase 1 (Homo sapiens)
Experiment: PME-1 inhibitors via competitive probe labeling, primary screen, biochemical, fluorescence polarization, FP-Rh probe, HTS (AID 2130);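 also: competitive labeling of PME-1 active site by serine hydrolase directed probe; 0% = PME-1 with DMSO and 100% = wells lacking PME-1 enzyme; inhibitors block probe labeling so polarization falls and inhibition rises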
Settings: recombinant PME-1, FP-Rh probe fluorescence polarization; at 5.9 µM
The whole screen tested about 320,000 compounds, of which about 1,700 (0.53%) were called active.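 How the source made its calls: active means inhibition above the campaign mean of all compounds plus 3 SD (cut at about 26% in these data); inactive means the rest.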 The sample holds actives, similar compounds and a random draw of the others, so the mix is not that of the screen.
Outcome codes: active, inactive

compound: CCOC(=O)Cc1c(C)nc2c(C#N)c(C)nn2c1C
class-label: inactive
--
compound: O=C(N/N=C/c1cccnc1)c1cc2ccccc2cc1O
class-label: inactive
--
compound: Cc1ccc(-n2c(SCC(=O)N3CCC(C(=O)O)CC3)nc3ccccc3c2=O)cc1C
class-label: inactive
--
compound: CCN1CCN(C(=O)N[C@@H](C(=O)N[C@@H]2C(=O)N3C(C(=O)O)=C(CSc4nnnn4C)CS[C@H]23)c2ccc(O)cc2)C(=O)C1=O
class-label: inactive
--
compound: Cc1[nH]c2c(C(=O)N3CCCC(CCC(=O)NCc4ccccc4F)C3)cccc2c1C (configuration not stated)
class-label: active
--
compound: CCc1nnc(NC(=O)CSc2nc(SC)ns2)s1
class-label: inactive
--
compound: O=C(NNc1c2ccccc2nc2ccccc12)c1cc2ccccc2cc1O
class-label: active
--
compound: CC(C)(C)OC(=O)NNc1c2ccccc2nc2ccccc12
class-label: inactive
--
compound: CSc1ncccc1C(=O)N1CCCC(CCC(=O)NCc2ccccc2F)C1 (configuration not stated)
class-label: inactive
--
compound: O=C(Oc1cccc(N2C(=O)C3C4c5ccccc5C(c5ccccc54)C3C2=O)c1)c1ccco1 (configuration not stated)
class-label: inactive
--
compound: O=c1[nH]cnc(O)c1C(c1ccc(F)cc1)c1c(O)nc[nH]c1=O
class-label: inactive
--
compound: COc1ccc(C2Nc3ccccc3C(=O)N2Cc2ccccc2)cc1Cn1nnc2ccccc21 (configuration not stated)
class-label: inactive
--
compound: CC(=O)N1CC[n+]2c(-c3ccc([N+](=O)[O-])cc3)csc21
class-label: inactive
--
compound: CS(=O)(=O)N(CC(=O)Nc1ccc(F)cc1F)c1cccc([N+](=O)[O-])c1
class-label: inactive
--
compound: O=C(CCC1CCCN(Cc2ccc(O)c(Cl)c2)C1)NCc1ccccc1F (configuration not stated)
class-label: inactive
--
compound: O=S(=O)(NC1CCCC1)c1ccc(-n2cnnn2)cc1
class-label: inactive
--
compound: COc1ccc(C2Nc3ccccc3C(=O)N2c2ccc(F)cc2)cc1Cn1nnc2ccccc21 (configuration not stated)
class-label: active
